Measured self-cleavage by item
B1: CPEB3 Ribozyme (parent)
chain: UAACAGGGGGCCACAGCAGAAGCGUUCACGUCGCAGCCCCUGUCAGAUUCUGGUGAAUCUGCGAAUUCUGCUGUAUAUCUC

# Variants of: B1
# experimental.details: self-cleavage, relative activity (ratio to wild type); higher = more cleavage; in vitro, sequencing
assay.endpoint: self-cleavage

variant.description	test.result
U67A G73A	1.05
C27G U69G	0.14
A15U U72C	0.87
U41C A56U	0.75
C40U U58C	0.24
A65U U76C	0.24
C44U U58C	0.28
U41C U43C	0.46
G19A U66C	0.44
C11U G24A	0.22
C50A U78C	0.71
U51G U72G	0.57
G10A U78G	0.33
A5G C79U	0.92
U41C A64C	0.46
G9A C23U	0.07
U66C A75G	0.28
U43A U69C	0.72
U1C U54C	0.68
U49C A57G	0.35
U67C U80C	0.4
A56U U60C	0.27
A47U U72C	0.53
U54A A64C	0.16
C14U U48A	0.71
C23A U69C	0.12
U54A U74A	1.22
A13G C62U	0.23
G9U U80A	0.26
A15U G30C	0.15
G30A C39U	0.21
A5G A57G	0.64
A28C U69C	0.19
U41C A56G	0.94
U26G U66G	0.2
C4U U72A	1.01
A18U U69C	0.47
C14U U25C	0.28
C23G U54A	0.26
A45C A56G	0.26
A20U C39G	0.27
G7A G10A	0.24
A3U G33A	0.16
G42C	0.51
A20C U43C	0.28
C14U C40U	1.07
A56G U69G	0.54
U51A	1.05
A18G A47C	0.12
U67A C81G	0.92
A5C U66C	0.54
C32U A35G	0.18
U69G U76C	0.98
G33A A45U	0.39
G24A C27U	0.3
U49A A75U	0.64
G7A U72C	0.48
U31C U43G	0.36
U31C U78C	0.87
U67A U76A	0.68
A15G A57G	0.63
A21G A75U	0.72
U41A G42A	0.37
U43A G52A	1.23
C38A U72A	0.34
G36A U76C	0.28
A20U A56G	0.25
C38U U72A	0.37
C11U A56U	0.33
A2U U51G	1.17
A18G C38U	0.73
U26A G63U	0.87
C11A A47U	0.27
A47C C62U	0.18
